This section presents molecules with their documented cell viability values.
system: myeloid leukemia patient primary cells Pat.15; test: cell viability (% survival relative to DMSO control); higher = less cytotoxic; conditions: 100 nM; 72 h

{"molecule": "O=C(c1c2ccccc2cc2ccccc12)N1CCC(N2CCC[C@@H](C(=O)N3CCOCC3)C2)CC1", "relationSign": "=", "cell viability, %": 84.5}
{"molecule": "O=C(Cc1cccc(OC(F)(F)F)c1)Nc1ccc(CCCCc2nnc(NC(=O)Cc3ccccn3)s2)nn1", "relationSign": "=", "cell viability, %": 73.2}
{"molecule": "CN(C)CCNC(=O)c1cccn2c(=O)c3cc4ccccc4cc3nc12", "relationSign": "=", "cell viability, %": 92.4}
{"molecule": "CC(C)c1onc(-c2c(Cl)cccc2Cl)c1COc1ccc(/C=C/c2cccc(C(=O)O)c2)c(Cl)c1", "relationSign": "=", "cell viability, %": 95.5}
{"molecule": "Nc1nc(O)c2c(CCc3ccc(C(=O)N[C@@H](CCC(=O)O)C(=O)O)cc3)c[nH]c2n1", "relationSign": ">", "cell viability, %": 100}
{"molecule": "CCC(CC#N)OC(=O)N[C@@H](C)c1cccc(NC(=O)Nc2ccc(-c3cnco3)c(OC)c2)c1 (stereo in doubt)", "relationSign": "=", "cell viability, %": 83.3}
{"molecule": "CCCCCCCCCCCCC/C=C/[C@@H](O)[C@H](CO)N(C)C", "relationSign": "=", "cell viability, %": 78.6}
{"molecule": "CCn1c(=O)/c(=C2\\Sc3ccccc3N2C)s/c1=C\\c1cccc[n+]1CC.[Cl-]", "relationSign": "=", "cell viability, %": 87.2}
{"molecule": "O=C(CCl)N(CCCNC(=O)C(F)(F)F)c1ccc([N+](=O)[O-])cc1", "relationSign": "=", "cell viability, %": 86.1}

---

We begin with a simple list: items and their reported cell viability.
test system: NOMO-1; assay: cell viability (% survival relative to DMSO control, bortezomib = 0%); higher = less cytotoxic; conditions: 10000 nM; 72 h
quantityName: cell viability (%)

{"molecule": "C[C@H]1O[C@H](O[C@H]2[C@H](O)[C@@H](O)[C@@H](O[C@H]3[C@H](O)[C@@H](O)C(O)O[C@@H]3CO)O[C@@H]2CO)[C@H](O)[C@@H](O)[C@@H]1N[C@H]1C=C(CO)[C@@H](O)[C@H](O)[C@H]1O (mixture of isomers) [Acarbose]", "testSystem": "NOMO-1", "quantityName": "cell viability", "experimentalResult": 88.4}
{"molecule": "OC[C@H]1OC(O)C[C@@H](O)[C@@H]1O (stereo not given in full) [2-deoxyglucose]", "testSystem": "NOMO-1", "quantityName": "cell viability", "experimentalResult": 93.6}
{"molecule": "OC[C@H]1N[C@@H](c2c[nH]c3c(O)ncnc23)[C@H](O)[C@@H]1O [Forodesine]", "testSystem": "NOMO-1", "quantityName": "cell viability", "experimentalResult": 87.4}
{"molecule": "O=C(C(=O)c1ccc(Br)cc1)c1ccc(Br)cc1 [4,4'-Dibromobenzil]", "testSystem": "NOMO-1", "quantityName": "cell viability", "experimentalResult": 96.2}
{"molecule": "Nc1nc(O)c2c(CCc3ccc(C(=O)N[C@@H](CCC(=O)O)C(=O)O)cc3)c[nH]c2n1 [Pemetrexed]", "testSystem": "NOMO-1", "quantityName": "cell viability", "experimentalResult": 50.2}
